# System: ACHN renal
# Measurement Description: NCI-60 one-dose screen, 48 h
# Experimental Conditions: 10 µM unless noted
Compounds without any hit were thinned out: in the full panel of roughly 83,000, 20% have a hit. Active and inactive are the calls of the source. Rule for the calls: active = growth percent below 10; inactive = the rest.
// classify into active, inactive

IN: Identify the outcome logged in this assay for the molecule shown: `O=C(N/N=C/c1cc2ccccc2nc1Cl)c1cc(-c2nc3ccccc3[nH]2)nc2ccccc12`
OUT: inactive

IN: I'd appreciate the recorded outcome for `Cc1ccc(/C=N/Nc2nc(Nc3ccccc3)nc(Nc3ccc(S(N)(=O)=O)cc3)n2)cc1` from this test.
OUT: inactive

IN: // outcome(item) with item = `COC(=O)c1ccc(NC2=C(Cl)C(=O)c3nc(C)ccc3C2=O)cc1`
OUT: inactive

IN: # fetch the recorded call for `CC1=C(C)C(=O)C(Nc2ccc(C)c(C)c2)=C(Br)C1=O` here
OUT: inactive

IN: // return assay outcome for CC(Nc1ncnc2ccc(-c3cnc(N)nc3)cc12)c1ccccc1 (stereo unspecified)
OUT: inactive

IN: // return assay outcome for `COc1ccc(-c2c(C(N)=O)c(N)n(Cc3nc4ccccc4[nH]3)c(=O)c2C#N)c(OC)c1`
OUT: inactive

IN: Call for entry `Cc1ccc2c(n1)C(=O)C(Cl)=C(Nc1cc(C(F)(F)F)cc(C(F)(F)F)c1)C2=O` :
OUT: active

IN: Just curious, what result did `O=C(/C=C/Nc1ccc(S(=O)(=O)Nc2ncccn2)cc1)c1ccc(N=Cc2c(O)[nH]c3ccccc23)cc1` get here?
OUT: inactive

IN: Please share the test call associated with `O=C(CSc1nc2ccccc2c(=O)n1-c1ccc(Cl)c(Cl)c1)Nc1ccc(S(=O)(=O)Nc2ccc(Cl)nn2)cc1` .
OUT: inactive

IN: How did this test come out for `Brc1cc(-c2cc(-c3ccc4c(c3)OCCO4)[nH]n2)cs1` ?
OUT: inactive

IN: Check the results log: what was the call for `O=S(=O)(Oc1ccc(-c2cn3ccoc3n2)cc1)C1CCCCC1` ?
OUT: inactive

IN: Please share the test call associated with `Brc1cccc(-c2cc(-c3cnc4c(c3)OCCO4)n[nH]2)c1` .
OUT: inactive

IN: Please indicate how the test categorized `CCOC(=O)c1cccnc1Nc1ccc(NC(=O)Nc2ccc(Cl)c(C(F)(F)F)c2)cc1` .
OUT: inactive

IN: Dear all, I need the recorded test outcome for `CN1CCN(CCNc2nc(-c3cccc(NS(=O)(=O)c4cccc5c(N(C)C)cccc45)c3)cs2)CC1` , thank you.
OUT: inactive

IN: Look up the recorded call for `C#CCOc1ccc(/C=N/Nc2nc(-c3ccc(OC)cc3)cs2)cc1` in this test.
OUT: inactive

IN: Could you kindly confirm the outcome this assay logged for `CC(C)(C)Nc1nc2c(OCCc3ccccc3)cccn2c1-c1cccc(Oc2ccccc2)c1` ?
OUT: active

IN: Fill in: this test's call for `COC(=O)c1ccc(NC2=C(Cl)C(=O)C(C)=C(C)C2=O)cc1` is ___
OUT: inactive

IN: Call for entry `O=C(CSc1nnc(-c2ccc(Cl)cc2)n1-c1ccccc1)Nc1ccccc1Cl` :
OUT: inactive

IN: What was the test verdict on `Cc1ccc(/C(N)=N/C(N)=N/c2nc3ccccc3s2)cc1` ?
OUT: inactive

IN: Please share the test call associated with `COC(=O)CCSC1=C(C)C(=O)c2ccccc2C1=O` .
OUT: inactive

IN: Record request — test call for `Cn1c(SCC(=O)c2ccco2)nc2ccccc2c1=O`
OUT: inactive

----------
# Test system: MALME-3M melanoma
# Measurement Description: NCI-60 one-dose screen, 48 h
# Experimental Conditions: 10 µM unless noted
This is part of a sample that, as a whole, favours compounds with a hit. Of some 83,000 tested, about 20% had one in any assay. Activity calls are given as the source filed them. Rule for the calls: active = growth percent below 10; inactive = the rest.
Outcome field: choose from active, inactive

{"Smiles Entry": "COC(=O)N1CCN(CCNCc2ccc(NC(=O)c3ccc(C)c(C#Cc4cnc5cccnn45)c3)cc2C(F)(F)F)CC1", "Assigned Label": "active"}
{"Smiles Entry": "O=C(CSc1cc[n+](CCCCO)c2ccccc12)n1ccc2ccccc21", "Assigned Label": "inactive"}
{"Smiles Entry": "Cc1ccc2c(n1)C(=O)C(Cl)=C(Nc1ccccc1C(=O)OC(C)(C)C)C2=O", "Assigned Label": "active"}

IN: Test call, this molecule: `Clc1ccc2c(N/N=C/c3c[nH]c4ccccc34)ccnc2c1`
OUT: active

IN: Lab log entry: `CN1CCN(c2ccc(Nc3nc(NCCCNS(=O)(=O)c4cccc(F)c4)c4sccc4n3)cc2)CC1` — outcome as called in the assay?
OUT: active

IN: # outcome recorded in this test, key = `COc1cc(NC(=O)Nc2cccc(-c3cc(=O)c4c(OC)c(OC)c(OC)cc4o3)c2)cc(OC)c1OC`
OUT: inactive

IN: Could you please tell me the result logged for `CS(=O)(=O)c1ccc(/C(=N/N=C(N)N)c2ccc(F)cc2)cc1` in this assay?
OUT: inactive

IN: Field: outcome | Entry: `CN1CCN(Cc2ccc(NC(=O)c3cncc(C#Cc4cnc5ccc(N6CCOCC6)nn45)c3)cc2C(F)(F)F)CC1`
OUT: active

IN: Look up the recorded call for `Brc1cccc(-c2cc(-c3cnc4c(c3)OCCO4)n[nH]2)c1` in this test.
OUT: inactive

----------
compounds and their reported growth
# System: BT-549 breast
# Measurement Description: NCI-60 one-dose screen, 48 h (100 = growth as untreated, 0 = no growth, -100 = all killed)
# Experimental Conditions: 10 µM unless noted
This is part of a sample that, as a whole, favours compounds with a hit. Of some 83,000 tested, about 20% had one in any assay.
Numbers only; they are read as %.

For orientation, consider the following solved cases.
{"Compound": "CCOP(=O)(OCC)OC[C@]12CC[C@@H](C)[C@H](C)C1C1=CC[C@@H]3[C@@]4(C)CCCNC(C)(C)[C@@H]4CC[C@@]3(C)[C@]1(C)CC2 (some centres undefined)", "growth [%]": 71.7}
{"Compound": "O=C(CSc1nc2ccccc2c(=O)n1-c1ccccc1)N/N=C/c1ccc(Oc2ccc(Cl)cc2)cc1", "growth [%]": 69.9}
{"Compound": "CN1CCN(CCCCCC(=O)Nc2nc(-c3cccc(NS(=O)(=O)c4cccc5c(N(C)C)cccc45)c3)cs2)CC1", "growth [%]": 90.7}
{"Compound": "O=C(/C=C/c1csc(Br)n1)NO", "growth [%]": 80.7}
{"Compound": "Cc1cccc(N2CCN(C3=C(Cl)C(=O)c4ncccc4C3=O)CC2)c1", "growth [%]": 97.9}
{"Compound": "CC1=C(C)C(=O)C(Nc2cccc(C)c2)=C(Br)C1=O", "growth [%]": 106}
{"Compound": "CCc1cc2c(cc1Cl)nc1c(=O)[nH]c(=O)nc-1n2CCOCC(C)C", "growth [%]": 94}
{"Compound": "CN1c2ccccc2Sc2cc(/C=N/Nc3ccnc4cc(Cl)ccc34)ccc21", "growth [%]": 99}

Okay, now this compound:
Readout growth for `N#Cc1c(-c2cccs2)cc(-c2cnccn2)nc1SCC(=O)N/N=C/c1ccc(Cl)cc1` , test system BT-549 breast, was 107

----------
# System: MDA-MB-435 melanoma
# Measurement Description: NCI-60 one-dose screen, 48 h (100 = growth as untreated, 0 = no growth, -100 = all killed)
# Experimental Conditions: 10 µM unless noted
The panel holds about 83,000 compounds, 20% with a hit somewhere; the sample as a whole holds those more often.
Measured growth, listed per entry for reference.
Answer with a number only, understood to be in %.

Observe how each entry below is paired with its result.
{"Molecule": "COc1ccc(CC(C)=C(c2ccc(OCCN3CCCC3)cc2)c2ccc(OCCN3CCCC3)cc2)cc1", "Target Or Test System": "MDA-MB-435 melanoma", "Numeric Readout": -76.4}
{"Molecule": "Nc1ccc(Nc2ncnc3sc4c(c23)CCN(Cc2ccccc2)C4)cc1", "Target Or Test System": "MDA-MB-435 melanoma", "Numeric Readout": 102}
{"Molecule": "CCN(CC)CCOc1ccc(C(=C(C)c2ccc(OC)cc2)c2ccc(OCCN(CC)CC)cc2)cc1", "Target Or Test System": "MDA-MB-435 melanoma", "Numeric Readout": -71.5}
{"Molecule": "Cc1ccc2c(n1)C(=O)C(Cl)=C(Nc1cccc(C(=O)OC(C)(C)C)c1)C2=O", "Target Or Test System": "MDA-MB-435 melanoma", "Numeric Readout": 97.9}
{"Molecule": "COc1ccc(C(C)=C(c2ccc(OCCN3CCCCCC3)cc2)c2ccc(OCCN3CCCCCC3)cc2)cc1", "Target Or Test System": "MDA-MB-435 melanoma", "Numeric Readout": -83.7}
{"Molecule": "Nc1nc(=O)n([C@H]2C[C@H](O)[C@@H](CO)O2)cc1C=O", "Target Or Test System": "MDA-MB-435 melanoma", "Numeric Readout": 110}
{"Molecule": "CC1(C)CC[C@]23CC[C@]4(C)[C@H](CC[C@@H]5[C@@]6(C)CC[C@H](NCO)C(C)(C)[C@@H]6CC[C@]54C)[C@H]2[C@H]1OC3", "Target Or Test System": "MDA-MB-435 melanoma", "Numeric Readout": 38.8}
{"Molecule": "CC(C)C(/C=C/c1[nH]ncc1-c1cc(Cl)ccc1O)N1CCOCC1 (centres undefined)", "Target Or Test System": "MDA-MB-435 melanoma", "Numeric Readout": 95.8}

Reported growth for `CCc1cc2c(cc1Cl)nc1c(=O)[nH]c(=O)nc-1n2CCOCC(C)C` was 3.04
